molecular target: HDELTA (Homo sapiens); construct: expressed in transfected cells; assay: Functional agonism HDELTA (EC50, % EMAX); type: biochemical
Sequence (P41143 whole entry): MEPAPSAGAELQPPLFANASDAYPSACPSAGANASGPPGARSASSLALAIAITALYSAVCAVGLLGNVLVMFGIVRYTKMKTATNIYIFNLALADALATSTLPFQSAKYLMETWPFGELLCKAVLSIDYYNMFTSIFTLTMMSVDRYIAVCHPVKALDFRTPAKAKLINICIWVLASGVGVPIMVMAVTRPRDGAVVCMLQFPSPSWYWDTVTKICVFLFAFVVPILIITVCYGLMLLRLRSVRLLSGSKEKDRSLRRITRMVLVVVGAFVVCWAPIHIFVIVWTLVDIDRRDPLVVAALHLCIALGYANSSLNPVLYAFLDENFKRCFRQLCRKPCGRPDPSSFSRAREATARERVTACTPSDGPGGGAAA
Counter-ions that a name gives are not always drawn.
Provide the recorded Emax for the entries that follow.
Give bare numbers, in %.

Worked examples follow.
Qu. I would be grateful if you could share the reported Emax for CCN(CC)C(=O)c1ccc(C(c2cccc3cccnc23)N2CCN(Cc3ccoc3)CC2)cc1 (stereo not shown) .
Ans. 89

Qu. I would be grateful if you could share the reported Emax for CCN(CC)C(=O)c1ccc(C(c2cccc3cccnc23)N2CCN(Cc3ncc[nH]3)CC2)cc1.Cl.Cl (stereo not shown) [Example 17, Dihydrochloride] .
Ans. 95.7

Qu. I would be grateful if you could share the reported Emax for CCN(CC)C(=O)c1ccc(C(c2cccc3cccnc23)N2CCN(Cc3c[nH]cn3)CC2)cc1 (stereo not shown) [Example 18, Dihydrochloride] .
Ans. 93.8

Qu. I would be grateful if you could share the reported Emax for CCN(CC)C(=O)c1ccc(C(c2cccc3cccnc23)N2CCN(Cc3ccsc3)CC2)cc1 (stereo not shown) .
Ans. 101

Qu. I would be grateful if you could share the reported Emax for CCN(CC)C(=O)c1ccc(C(c2cccc3cccnc23)N2CCN(Cc3cccs3)CC2)cc1.Cl.Cl (stereo not shown) [Example 16, Dihydrochloride] .
Ans. 99.4

Batch request: Emax for each of the following compounds.
1. CCN(CC)C(=O)c1ccc(C(c2cccc3cccnc23)N2CCN(Cc3ccccn3)CC2)cc1 (stereo not shown) [Example 12, Dihydrochloride]
2. CCN(CC)C(=O)c1ccc(C(c2cccc3cccnc23)N2CCN(Cc3ccco3)CC2)cc1 (stereo not shown)

Ans.
1: 97.7; 2: 88.7

====

assay: Metabolic stability RLM (% remaining); format: in vitro ADME, rat; details: 10000
Counter-ions that a name gives are not always drawn.
Provide the recorded RLM 10000 % rem. for the entries that follow.
Output should be the measured figure followed by the unit it is expressed in.

Worked examples follow.
Qu. I would be grateful if you could share the reported RLM 10000 % rem. for CCN(CC)C(=O)c1ccc(C(c2cccc3cccnc23)N2CCN(Cc3ccccn3)CC2)cc1 (stereo not drawn) [Example 12, Dihydrochloride] .
Ans. 21.5 % rem.

Qu. I would be grateful if you could share the reported RLM 10000 % rem. for CCN(CC)C(=O)c1ccc(C(c2cccc3cccnc23)N2CCN(Cc3ccco3)CC2)cc1 (stereo not drawn) .
Ans. 13.5 % rem.

Qu. I would be grateful if you could share the reported RLM 10000 % rem. for CCN(CC)C(=O)c1ccc(C(c2cccc3cccnc23)N2CCN(Cc3ccoc3)CC2)cc1 (stereo not drawn) .
Ans. 10 % rem.

Qu. I would be grateful if you could share the reported RLM 10000 % rem. for CCN(CC)C(=O)c1ccc(C(c2cccc3cccnc23)N2CCN(Cc3cccs3)CC2)cc1.Cl.Cl (stereo not drawn) .
Ans. 9.5 % rem.

Qu. I would be grateful if you could share the reported RLM 10000 % rem. for CCN(CC)C(=O)c1ccc(C(c2cccc3cccnc23)N2CCN(Cc3ncc[nH]3)CC2)cc1.Cl.Cl (stereo not drawn) .
Ans. 5.5 % rem.

New cases:
Qu. I would be grateful if you could share the reported RLM 10000 % rem. for CCN(CC)C(=O)c1ccc(C(c2cccc3cccnc23)N2CCN(Cc3ccsc3)CC2)cc1 (stereo not drawn) .
Ans. 10 % rem.
